B1: LINE1-full (parent)
chain: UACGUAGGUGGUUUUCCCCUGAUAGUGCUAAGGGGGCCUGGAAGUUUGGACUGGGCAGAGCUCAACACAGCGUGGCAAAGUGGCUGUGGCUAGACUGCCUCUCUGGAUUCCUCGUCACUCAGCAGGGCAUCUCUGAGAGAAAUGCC

Variants of: B1
ASSAY EXPLANATION: self-cleavage, relative activity (ratio to wild type); higher = more cleavage; in vitro, sequencing; the parent is a self-cleaving ribozyme
Cut-off 1 on self-cleavage, inclusive. At or above means MET; below means NOT MET.

Past entries and their recorded results:
mutation_label="G105U U132C" assigned_label="NOT MET"
mutation_label=G74A assigned_label="NOT MET"
mutation_label="G32A U100C" assigned_label=MET
mutation_label="U102C G126U" assigned_label=MET
mutation_label="U12C A22G" assigned_label=MET
mutation_label="U29C A65G" assigned_label="NOT MET"
mutation_label="U85A C116U" assigned_label="NOT MET"
mutation_label="U119C A121U" assigned_label=MET
mutation_label="G72A C84U" assigned_label="NOT MET"
mutation_label="A59G A79U" assigned_label="NOT MET"

Incoming: Does the variant C116A A142C have recorded self-cleavage that is 1 or more?
Outgoing: MET

Incoming: For this variant, is measured self-cleavage 1 or higher? A57U C110A
Outgoing: NOT MET

Incoming: Assess whether reported self-cleavage for U87C G114U sits at 1 or higher.
Outgoing: NOT MET

Incoming: Reported self-cleavage reaches at least 1 for U96C U143C ?
Outgoing: NOT MET

Incoming: Exam item: decide whether the reported self-cleavage for U20C G135A is at least 1.
Outgoing: MET

Incoming: Kindly determine if self-cleavage recorded for U23C G114C is above or exactly 1.
Outgoing: MET

Incoming: // inclusive: self-cleavage at least 1? input: A77G G82U
Outgoing: MET

Incoming: Does U87A A107U have a reported self-cleavage of at least 1?
Outgoing: NOT MET

Incoming: Hi team, for U119C A136U , is the recorded self-cleavage at or above 1?
Outgoing: MET

Incoming: Threshold query (self-cleavage >= 1) on A78G U96C
Outgoing: NOT MET

Incoming: Could you verify whether the entry U1C U14G shows self-cleavage of no less than 1?
Outgoing: NOT MET

Incoming: Would you say A43G C99U shows self-cleavage at minimum 1?
Outgoing: MET

Incoming: Check the entry A69G U134A : does self-cleavage equal or exceed 1?
Outgoing: NOT MET

Incoming: Does the reported self-cleavage for U47G U119A fall at or above the 1 mark?
Outgoing: MET

Incoming: Hi team, for C95A A121U , is the recorded self-cleavage at or above 1?
Outgoing: NOT MET

Incoming: Identify whether the reported self-cleavage of the following variant is 1 or greater: A24G A30G
Outgoing: NOT MET

Incoming: hey, is self-cleavage for this one >= 1? U20A A43C
Outgoing: NOT MET

Incoming: Decide: is the reported value of self-cleavage for A57U U108C equal to or greater than 1?
Outgoing: NOT MET

Where do these numbers come from? They come from the RNAGym collection of RNA variant scans (doi:10.7554/elife.90254).
